Data credit: paper PMC8875489

- assay_info: Experimental aqueous solubility (UV spectrophotometry of saturated solutions)
- Type: physicochemical
- condition_label: water (saturated solution), thermodynamic from solid; water, room temperature (20° C), after 24 h, average of 3; read-out: Experimental Aqueous Solubility
observed_property: log10 of solubility at 24 h (log10 of the value in µg/mL)
In plain terms, each number is the log10 of measured solubility at 24 h in µg/mL.

molecule: C[Se]C(=O)c1ccc(C(=O)[Se]C)cc1
log10 of solubility at 24 h: 1.45

Give the measured log10 of solubility at 24 h of C[Se]C(=O)c1cccc(C(=O)[Se]C)c1 .
1.41

Give the measured log10 of solubility at 24 h of C[Se]C(=O)c1ccc(C(=O)[Se]C)s1 .
1.49

---

- assay_info: PAMPA membrane permeability test (capillary electrophoresis)
- Assay type: in vitro ADME
- condition_label: 5 h
Returns one of 1.0 or 0.0; 1.0 when % Perm. (percentage that crossed from the donor well to the acceptor well) is >= 6%.

For orientation, consider the following solved cases.
molecule: CC(=O)C[Se]C(=O)c1ccc(Cl)cc1 [EDA-71, Se-(2-oxopropyl) 4-chlorobenzoselenoate]
discrete_label: 1.0
//
molecule: C[Se]C(=O)c1cccc(C(=O)[Se]C)n1 [EDA-119]
discrete_label: 0.0
//
molecule: C[Se]C(=O)c1ccc(C(=O)[Se]C)s1 [EDA-122]
discrete_label: 1.0

Let us examine a further case.
Evaluate COC(=O)C[Se]C(=O)c1cc(OC)cc(OC)c1 [EDA-58] : % Perm. (percentage that crossed from the donor well to the acceptor well) at minimum 6%?
0.0

---

Form field: B (binomial B value) (one value per entry).
- Test system: Salmonella Typhimurium TA100 strain
- condition_label: 10 µM; TA100; threshold ≥ 0.99
- Experimental: Safety profiles were evaluated using an in vitro microbiological method adapted to the microplate Ames test (384-well microtitration plate), which applies Salmonella enterica serovar Typhimurium bacterial strains (the gold standard in mutagenicity research). […] The reversion events were counted both manually and by means of a microplate reader. […] In the next step of the studies, the in vitro safety profiles of the tested selenocompounds were evaluated. […]
Please state the value as a number alone, without comment.

Example molecules with recorded B (binomial B value):
molecule: CC(=O)C[Se]C(=O)c1ccc(Cl)cc1 [EDA-71, Se-(2-oxopropyl) 4-chlorobenzoselenoate]
obs_value: 0.98
--
molecule: O=C1[Se]C(=O)c2ccccc21 [EDA-A6, benzo[c]selenophene-1,3-dione]
obs_value: 0.001
--
molecule: COc1cccc2c1C(=O)c1c(O)c3c(c(O)c1C2=O)C[C@@](O)(C(=O)CO)C[C@@H]3O[C@H]1C[C@H](N)[C@H](O)[C@H](C)O1 [DOXO, doxorubicin, reference compound]
obs_value: 0.46
--
molecule: C[Se]C(=O)c1cccc(C(=O)[Se]C)c1
obs_value: 1.00
--
molecule: O=C(C[Se]C(=O)c1ccccc1)Oc1ccccc1 [EDA-93, phenyl 2-(benzoylselanyl)acetate]
obs_value: 0.80
--
molecule: CC(C)(C)C(=O)C[Se]C(=O)c1ccc(Cl)cc1
obs_value: 0.04
--
molecule: NC(=O)C[Se]C(=O)c1ccccc1 [EDA-117, Se-carbamoylmethyl benzoselenoate]
obs_value: 0.18
--
molecule: COC(=O)C[Se]C(=O)c1ccccc1 [EDA-53, methyl 2-(benzoylselanyl)acetate]
obs_value: 0.98
--
molecule: COC(=O)C[Se]C(=O)Cc1ccccc1
obs_value: 0.75
--
molecule: C[Se]C(=O)c1ccc(C(=O)[Se]C)s1
obs_value: 0.94

Give the measured B (binomial B value) of COC(=O)C[Se]C(=O)c1ccccc1Cl .
0.88

Give the measured B (binomial B value) of COC(=O)C[Se]C(=O)c1cc(OC)cc(OC)c1 .
1.00

Give the measured B (binomial B value) of C[Se](=O)O [MetSeAc, methylseleninic acid, reference compound] .
0.47

Give the measured B (binomial B value) of C[Se]C(=O)c1cccc(C(=O)[Se]C)n1 .
0.90

Give the measured B (binomial B value) of COc1cc(OC)cc(C(=O)[Se]CC(=O)C(C)(C)C)c1 .
0.68

---

- System: Salmonella Typhimurium TA100 strain
- condition_label: 1 µM; TA100; threshold ≥ 0.99
Form field: B (binomial B value) (one value per entry).
Please state the value as a number alone, without comment.

compound: COC(=O)C[Se]C(=O)c1cc(OC)cc(OC)c1
study_system: Salmonella Typhimurium TA100 strain
obs_value: 0.80
//
compound: COC(=O)C[Se]C(=O)c1ccccc1 [EDA-53, methyl 2-(benzoylselanyl)acetate]
study_system: Salmonella Typhimurium TA100 strain
obs_value: 1.00
//
compound: C[Se]C(=O)c1cccc(C(=O)[Se]C)c1
study_system: Salmonella Typhimurium TA100 strain
obs_value: 1.00
//
compound: COC(=O)C[Se]C(=O)c1ccccc1Cl
study_system: Salmonella Typhimurium TA100 strain
obs_value: 1.00

Any idea what B (binomial B value) came out for C[Se](=O)O [MetSeAc, methylseleninic acid, reference compound] on Salmonella Typhimurium TA100 strain?
0.37

Any idea what B (binomial B value) came out for COc1cccc2c1C(=O)c1c(O)c3c(c(O)c1C2=O)C[C@@](O)(C(=O)CO)C[C@@H]3O[C@H]1C[C@H](N)[C@H](O)[C@H](C)O1 [DOXO, doxorubicin, reference compound] on Salmonella Typhimurium TA100 strain?
1.00

Any idea what B (binomial B value) came out for CC(=O)C[Se]C(=O)c1ccc(Cl)cc1 [EDA-71, Se-(2-oxopropyl) 4-chlorobenzoselenoate] on Salmonella Typhimurium TA100 strain?
0.34

---

- System: Salmonella Typhimurium TA100 strain
- condition_label: 1 µM; TA100; threshold ≥ 0.99
Entries whose B (binomial B value) is below 0.4 take T; entries at or above 0.4 take F.

For orientation, consider the following solved cases.
molecule: C[Se]C(=O)c1cccc(C(=O)[Se]C)n1
study_system: Salmonella Typhimurium TA100 strain
discrete_label: T
//
molecule: C[Se]C(=O)c1ccc(C(=O)[Se]C)cc1
study_system: Salmonella Typhimurium TA100 strain
discrete_label: T
//
molecule: COc1cc(OC)cc(C(=O)[Se]CC(=O)C(C)(C)C)c1
study_system: Salmonella Typhimurium TA100 strain
discrete_label: F
//
molecule: O=C1[Se]C(=O)c2ccccc21 [EDA-A6, benzo[c]selenophene-1,3-dione]
study_system: Salmonella Typhimurium TA100 strain
discrete_label: F
//
molecule: NC(=O)C[Se]C(=O)c1ccccc1 [EDA-117, Se-carbamoylmethyl benzoselenoate]
study_system: Salmonella Typhimurium TA100 strain
discrete_label: T
//
molecule: COC(=O)C[Se]C(=O)c1cc(OC)c(OC)c(OC)c1
study_system: Salmonella Typhimurium TA100 strain
discrete_label: F
//
molecule: COC(=O)C[Se]C(=O)Cc1ccccc1
study_system: Salmonella Typhimurium TA100 strain
discrete_label: F
//
molecule: O=C(C[Se]C(=O)c1ccccc1)Oc1ccccc1 [EDA-93, phenyl 2-(benzoylselanyl)acetate]
study_system: Salmonella Typhimurium TA100 strain
discrete_label: F
//
molecule: CC(C)(C)C(=O)C[Se]C(=O)c1ccc(Cl)cc1
study_system: Salmonella Typhimurium TA100 strain
discrete_label: F

Let us examine a further case.
State whether 0.4 exceeds B (binomial B value) recorded for C[Se]C(=O)c1ccc(C(=O)[Se]C)s1 .
T

---

- assay_info: PAMPA membrane permeability test (capillary electrophoresis)
- Format: in vitro ADME
- condition_label: 50 μM in PBS pH 7.4, 5 h, room temperature, read-out: In Vitro Permeability
observed_property: Papp at 5 h, 50 µM (×10⁻⁶ cm/s)
A number alone suffices; assume ×10⁻⁶ cm/s.

Give the measured Papp at 5 h, 50 µM of CC(=O)C[Se]C(=O)c1ccc(Cl)cc1 [EDA-71, Se-(2-oxopropyl) 4-chlorobenzoselenoate] .
3.86

---

- System: Salmonella Typhimurium TA100 strain
- condition_label: 1 µM; TA100; mutagenic if MI ≥ 2
observed_property: MI (mutagenic index)
Please state the value as a number alone, without comment.

Example molecules with recorded MI (mutagenic index):
molecule: COC(=O)C[Se]C(=O)Cc1ccccc1
study_system: Salmonella Typhimurium TA100 strain
obs_value: 1.46

molecule: C[Se](=O)O [MetSeAc, methylseleninic acid, reference compound]
study_system: Salmonella Typhimurium TA100 strain
obs_value: 0.90

molecule: CC(=O)C[Se]C(=O)c1ccc(Cl)cc1 [EDA-71, Se-(2-oxopropyl) 4-chlorobenzoselenoate]
study_system: Salmonella Typhimurium TA100 strain
obs_value: 0.54

molecule: COC(=O)C[Se]C(=O)c1cc(OC)cc(OC)c1
study_system: Salmonella Typhimurium TA100 strain
obs_value: 0.57

molecule: COc1cccc2c1C(=O)c1c(O)c3c(c(O)c1C2=O)C[C@@](O)(C(=O)CO)C[C@@H]3O[C@H]1C[C@H](N)[C@H](O)[C@H](C)O1 [DOXO, doxorubicin, reference compound]
study_system: Salmonella Typhimurium TA100 strain
obs_value: 1.64

Give the measured MI (mutagenic index) of C[Se]C(=O)c1ccc(C(=O)[Se]C)s1 .
0.84

Give the measured MI (mutagenic index) of O=C1[Se]C(=O)c2ccccc21 [EDA-A6, benzo[c]selenophene-1,3-dione] .
1.23

Give the measured MI (mutagenic index) of CC(C)(C)C(=O)C[Se]C(=O)c1ccc(Cl)cc1 .
1.28

Give the measured MI (mutagenic index) of COc1cc(OC)cc(C(=O)[Se]CC(=O)C(C)(C)C)c1 .
0.88
